Listed compounds paired with reported inhibition
# TARGET_UNDER_TEST: Heat shock protein HSP 90-alpha (Homo sapiens, UniProt P07900)
# EXPERIMENT_SUMMARY: Inhibition of recombinant Homo sapiens (human) Hsp90 alpha ATPase activity assessed as inorganic phosphate release at 10 uM by malachite green colorimetric method

Hello, please tell me recorded inhibition for this one: `Cc1cccc(NC(=O)C[n+]2cccc(C(N)=O)c2)c1`
34%

Hello, please tell me recorded inhibition for this one: `CC(=O)NS(=O)(=O)c1ccc(NC(=O)C[n+]2cccc(C(N)=O)c2)cc1`
36%

Hello, please tell me recorded inhibition for this one: `COc1ccc(NC(=O)C[n+]2cccc(C(N)=O)c2)cc1`
20%

Continuing:
Hello, please tell me recorded inhibition for this one: `N=C(N)NS(=O)(=O)c1ccc(NC(=O)C[n+]2cccc(C(N)=O)c2)cc1`
29%

Hello, please tell me recorded inhibition for this one: `N=C(N)NS(=O)(=O)c1ccc(NC(=O)C[n+]2ccccc2)cc1`
20%

====

# TARGET_UNDER_TEST: Heat shock protein HSP 90-alpha (Homo sapiens, UniProt P07900)
# EXPERIMENT_SUMMARY: Inhibition of recombinant Homo sapiens (human) Hsp90 alpha ATPase activity assessed as inorganic phosphate release at 10 uM by malachite green colorimetric method
Calls of active or inactive are those of the source. The rule behind the calls is not given here.
MEASUREMENT_TYPE: inhibition

Hello, please tell me recorded inhibition for this one: `NS(=O)(=O)c1ccc(NC(=O)C[n+]2cccc(C(=O)Nc3ccc([N+](=O)[O-])cc3)c2)cc1`
8%

Hello, please tell me recorded inhibition for this one: `C=CCNC(=O)c1ccc[n+](CC(=O)Nc2ccc(C)cc2)c1`
23%

Hello, please tell me recorded inhibition for this one: `C=CCNC(=O)c1ccc[n+](CC(=O)Nc2ccc([N+](=O)[O-])cc2)c1`
20%

Hello, please tell me recorded inhibition for this one: `O=C(C[n+]1ccccc1)Nc1ccccc1`
3%

Hello, please tell me recorded inhibition for this one: `COc1ccc(NC(=O)c2ccc[n+](CC(=O)Nc3ccc([N+](=O)[O-])cc3)c2)cc1`
inactive

Hello, please tell me recorded inhibition for this one: `O=C(C[n+]1cccc(C(=O)Nc2ccc(Cl)cc2)c1)Nc1ccc(Cl)cc1`
inactive

Continuing:
Hello, please tell me recorded inhibition for this one: `C=CCNC(=O)c1ccc[n+](CC(=O)Nc2ccc(OC)cc2)c1`
32%

====

# TARGET_UNDER_TEST: Heat shock protein HSP 90-alpha (Homo sapiens, UniProt P07900)
# EXPERIMENT_SUMMARY: Inhibition of recombinant Homo sapiens (human) Hsp90 alpha ATPase activity assessed as inorganic phosphate release at 10 uM by malachite green colorimetric method
Listed molecules paired with reported inhibition
Express it in %; write the number only.

Hello, please tell me recorded inhibition for this one: `Cc1ccccc1NC(=O)C[n+]1cccc(C(N)=O)c1`
8

Hello, please tell me recorded inhibition for this one: `CSc1ccc(NC(=O)c2ccc[n+](CC(=O)Nc3ccc(Cl)cc3)c2)cc1`
19

Hello, please tell me recorded inhibition for this one: `COc1ccc(NC(=O)c2ccc[n+](CC(=O)Nc3ccc(Cl)cc3)c2)cc1`
10

Hello, please tell me recorded inhibition for this one: `COc1ccc(NC(=O)C[n+]2cccc(C(=O)Nc3ccc(OC)cc3)c2)cc1`
3

Hello, please tell me recorded inhibition for this one: `Cc1ccc(NC(=O)C[n+]2cccc(C(=O)Nc3ccccc3)c2)cc1`
59

Hello, please tell me recorded inhibition for this one: `NC(=O)c1ccc[n+](CC(=O)Nc2ccc(Cl)cc2)c1`
24

Hello, please tell me recorded inhibition for this one: `O=C(C[n+]1ccccc1)NCc1ccccc1`
36

Hello, please tell me recorded inhibition for this one: `NC(=O)c1ccc[n+](Cc2ccccc2)c1`
10

Continuing:
Hello, please tell me recorded inhibition for this one: `O=C(C[n+]1ccccc1)Nc1ccc(Cl)cc1`
3

Hello, please tell me recorded inhibition for this one: `COc1ccc(NC(=O)C[n+]2cccc(C(=O)Nc3ccc(Cl)cc3)c2)cc1`
2

Hello, please tell me recorded inhibition for this one: `NC(=O)c1ccc[n+](CC(=O)Nc2ccc([N+](=O)[O-])cc2)c1`
62
